Cited source for all entries: patent US6610675B1

System: thymus weight in rats
assay.procedure: Thymus inhibition testing (subcutaneous administration)
Assay type: in vivo, rat
experimental.context: Table XII, thymus inhibition effect, subcutaneously
Class T: TED40 at least 20 mg/kg. Class F: TED40 below 20 mg/kg.

Prompt: TED40 >= 20 mg/kg for CCOC(=O)O[C@]1(C(=O)OCCl)[C@H](C)C[C@H]2[C@@H]3CCC4=CC(=O)C=C[C@]4(C)[C@@]3(F)[C@@H](O)C[C@@]21C ?
Completion: T

Prompt: TED40 >= 20 mg/kg for CCCC(=O)O[C@]1(C(=O)CO)CC[C@H]2[C@@H]3CCC4=CC(=O)CC[C@]4(C)[C@H]3[C@@H](O)C[C@@]21C [Hydrocortisone 17-butyrate, reference compound] ?
Completion: F

Prompt: TED40 >= 20 mg/kg for CC(C)OC(=O)O[C@]1(C(=O)OCCl)CC[C@H]2[C@@H]3CCC4=CC(=O)CC[C@]4(C)[C@H]3[C@@H](O)C[C@@]21C ?
Completion: T

Prompt: TED40 >= 20 mg/kg for CCCCC(=O)O[C@]1(C(=O)CO)[C@@H](C)C[C@H]2[C@@H]3CCC4=CC(=O)C=C[C@]4(C)[C@@]3(F)[C@@H](O)C[C@@]21C [Betamethasone 17-valerate, reference compound] ?
Completion: F

Prompt: TED40 >= 20 mg/kg for CC(C)OC(=O)O[C@]1(C(=O)OCCl)CC[C@H]2[C@@H]3CCC4=CC(=O)C=C[C@]4(C)[C@H]3[C@@H](O)C[C@@]21C ?
Completion: F

Prompt: TED40 >= 20 mg/kg for COC(=O)O[C@]1(C(=O)OCCl)[C@H](C)C[C@H]2[C@@H]3CCC4=CC(=O)C=C[C@]4(C)[C@@]3(F)[C@@H](O)C[C@@]21C ?
Completion: T

----------
Test system: thymus weight in rats
assay.procedure: Thymus inhibition testing (subcutaneous administration)
Assay type: in vivo, rat
experimental.context: Table VII, 10 mg/kg/day s.c., three days
Provide the recorded Body weight gain for the entries that follow.
Express it in g; write the number only.

Prompt: Entry under review: CCCC(=O)O[C@]1(C(=O)CO)CC[C@H]2[C@@H]3CCC4=CC(=O)CC[C@]4(C)[C@H]3[C@@H](O)C[C@@]21C [Hydrocortisone 17-butyrate, reference compound] . Reported Body weight gain?
Completion: -5.0

Prompt: Entry under review: CC(C)OC(=O)O[C@]1(C(=O)OCCl)CC[C@H]2[C@@H]3CCC4=CC(=O)C=C[C@]4(C)[C@H]3[C@@H](O)C[C@@]21C . Reported Body weight gain?
Completion: 6.2

Prompt: Entry under review: CC(C)OC(=O)O[C@]1(C(=O)OCCl)CC[C@H]2[C@@H]3CCC4=CC(=O)CC[C@]4(C)[C@H]3[C@@H](O)C[C@@]21C . Reported Body weight gain?
Completion: 10.2

Prompt: Entry under review: CCOC(=O)O[C@]1(C(=O)OCCl)[C@H](C)C[C@H]2[C@@H]3CCC4=CC(=O)C=C[C@]4(C)[C@@]3(F)[C@@H](O)C[C@@]21C . Reported Body weight gain?
Completion: 9.7

----------
System: granulation tissue formation caused by implantation of cotton pellets
assay.procedure: Granuloma formation test (local cotton pellet granuloma assay)
Assay type: in vivo, rat
experimental.context: Table IV, 300 μg/pellet
Provide the recorded Granulation tissue Dry wt. for the entries that follow.
Express it in mg; write the number only.

Prompt: State its Granulation tissue Dry wt. on granulation tissue formation caused by implantation of cotton pellets: CC(C)OC(=O)O[C@]1(C(=O)OCCl)CC[C@H]2[C@@H]3CCC4=CC(=O)C=C[C@]4(C)[C@H]3[C@@H](O)C[C@@]21C
Completion: 38.1

Prompt: State its Granulation tissue Dry wt. on granulation tissue formation caused by implantation of cotton pellets: CCCC(=O)O[C@]1(C(=O)CO)CC[C@H]2[C@@H]3CCC4=CC(=O)CC[C@]4(C)[C@H]3[C@@H](O)C[C@@]21C [Hydrocortisone 17-butyrate, reference compound]
Completion: 34.0

Prompt: State its Granulation tissue Dry wt. on granulation tissue formation caused by implantation of cotton pellets: CCCCC(=O)O[C@]1(C(=O)CO)[C@@H](C)C[C@H]2[C@@H]3CCC4=CC(=O)C=C[C@]4(C)[C@@]3(F)[C@@H](O)C[C@@]21C [Betamethasone 17-valerate, reference compound]
Completion: 33.3

Prompt: State its Granulation tissue Dry wt. on granulation tissue formation caused by implantation of cotton pellets: CC(C)OC(=O)O[C@]1(C(=O)OCCl)CC[C@H]2[C@@H]3CCC4=CC(=O)CC[C@]4(C)[C@H]3[C@@H](O)C[C@@]21C
Completion: 50.9
